Ref: ChEMBL document CHEMBL1961873

# system: Tyrosine-protein kinase FRK (Homo sapiens) (UniProt P42685);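 note: reported percent inhibition is a mean value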
# Sequence (P42685 whole entry): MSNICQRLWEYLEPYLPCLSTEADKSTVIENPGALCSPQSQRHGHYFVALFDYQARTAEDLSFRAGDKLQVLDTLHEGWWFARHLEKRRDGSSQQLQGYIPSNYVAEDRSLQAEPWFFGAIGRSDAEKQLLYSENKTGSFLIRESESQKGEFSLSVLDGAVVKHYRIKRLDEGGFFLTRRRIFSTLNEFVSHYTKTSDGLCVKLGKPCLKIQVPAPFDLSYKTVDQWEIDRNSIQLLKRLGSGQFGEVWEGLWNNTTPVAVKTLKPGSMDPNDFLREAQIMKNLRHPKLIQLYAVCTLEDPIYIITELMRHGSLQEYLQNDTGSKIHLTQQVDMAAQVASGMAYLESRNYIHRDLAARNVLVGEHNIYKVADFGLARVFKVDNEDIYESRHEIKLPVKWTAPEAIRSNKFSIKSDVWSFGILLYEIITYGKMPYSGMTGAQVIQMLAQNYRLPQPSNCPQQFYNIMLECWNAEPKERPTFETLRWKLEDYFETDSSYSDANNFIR
# settings: at 1 µM
valueType: inhibition

- CCN1CCC(C(=O)Nc2n[nH]c3nnc(-c4cccc(F)c4F)cc23)CC1: 1.25%
- COc1cc(N2CCN(C(C)C)CC2)ccc1Nc1nc(Nc2cccc3ncccc23)c2cc[nH]c2n1: 1.26%
- Cn1c(-c2nonc2N)nc2cnccc21: 1.06%
- CCOc1ccc2c(-c3ccnc(Nc4cc(OC)cc(C(F)(F)F)c4)n3)cnn2n1: -0.61%
- O=C(O[C@H]1CN[C@H](C#Cc2cc3ncnc(Nc4ccc5c(ccn5Cc5cc(F)ccc5F)c4)c3s2)C1)N1CCOCC1: 2.35%
- CNC(=O)c1ncccc1Nc1nc(Nc2cc3c(cc2OC)CCCN3C(=O)CN(C)C)nc2[nH]ccc12: 2.98%
- Cc1cc(O)cc(C)c1/C=C/c1cncc(C(=O)OC(C)(C)C)c1: 20.1%
- CN1CCC(n2cnc(-c3ccc(F)cc3)c2-c2ccnc(NCCO)n2)CC1: 1.02%
- c1cnn2ncc(-c3ccnc(NCCCN4CCOCC4)n3)c2c1: 0.39%
- CS(=O)(=O)Nc1ccc(-c2cc(-c3ccccc3)cc(C(N)=O)c2N)cc1: 1.63%

---

# system: Serine/threonine-protein kinase PLK1 (Homo sapiens);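 note: reported value is a mean PLK1 inhibition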
# settings: at 1 µM
Recorded inhibition values for a group of molecules are listed next.
valueType: inhibition (%)

- O=C1Nc2ccccc2/C1=C1\CCc2cc(O)ccc21: 4.17
- CCn1c(-c2nonc2N)nc2cncc(C(=O)NCCNC)c21: 5.87
- O=C(Nc1n[nH]c2nnc(-c3cccnc3)cc12)C1CC1: 2.11
- COc1cccc(-n2ncc3c(N/N=C/c4ccc(C(=O)NCCN(C)C)cc4)ncnc32)c1: 2.1

---

# system: Mitogen-activated protein kinase kinase kinase kinase 2 (Homo sapiens);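 note: values given as mean percent inhibition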
# settings: at 0.1 µM
Recorded inhibition values for a group of compounds are listed next.
valueType: inhibition

• CS(=O)(=O)CCNCc1ccc(-c2ccc3ncnc(Nc4ccc(OCc5ccccc5)cc4)c3c2)o1 = 0.28%
• CN(c1ccc(NC(=O)NCCN2CCOCC2)cc1)c1ccnc(Nc2ccc(CS(C)(=O)=O)cc2)n1 = 0.62%
• Cc1cc(O)cc(C)c1/C=C/c1cncc(C(=O)OC(C)(C)C)c1 = 2.5%
• O=C(O[C@H]1CN[C@H](C#Cc2cc3ncnc(Nc4ccc(OCc5cccc(F)c5)c(Cl)c4)c3s2)C1)N1CCOCC1 = 1.53%
• Cc1ccc(-c2cc3c(NC(=O)C4CC4)ncnc3o2)cc1 = 0.9%
• COc1cccc(Nc2nccc(-c3cnn4ncccc34)n2)c1 = 17.1%
• O=C(O[C@H]1CN[C@H](C#Cc2cc3ncnc(Nc4ccc5c(ccn5Cc5cc(F)ccc5F)c4)c3s2)C1)N1CCOCC1 = 1.18%
• CN(C)CCNC(=O)Nc1ccc(N(C)c2ccnc(Nc3ccc(CS(C)(=O)=O)cc3)n2)cc1 = 0.59%
• CC1(C)CC(n2cnc(-c3ccc(F)cc3)c2-c2ccnc(N)n2)CC(C)(C)N1 = 1.36%
• Cc1c2ccc(N(C)c3ccnc(Nc4cccc(S(N)(=O)=O)c4)n3)cc2nn1C = 7.77%
• Cn1c(-c2nonc2N)nc2cnccc21 = 0.8%
• O=C1Nc2ccccc2/C1=C1\CCc2cc(O)ccc21 = 12.1%
• CNC(=O)c1ncccc1Nc1nc(Nc2cc3c(cc2OC)CCCN3C(=O)CN(C)C)nc2[nH]ccc12 = 1.56%
• O=C(Nc1n[nH]c2nnc(-c3cccnc3)cc12)C1CC1 = 0.63%
• c1cnn2ncc(-c3ccnc(NCCCN4CCOCC4)n3)c2c1 = -0.2%
• COc1ccc(Nc2ncc(-c3ccccc3)o2)cc1OC = 3.92%
• CC1=C(C(=O)Nc2ccc3[nH]nc(C)c3c2)C(c2ccc(C(F)(F)F)cc2)CC(=O)N1 (stereo not given) = 0.76%
• NC(=O)c1ccc2c(-c3ccnc(NCCCO)n3)c(-c3ccc(F)cc3)nn2c1 = 1.47%
• Cc1cc(O)cc(C)c1/C=C/c1cncc(C(N)=O)c1 = 2.32%
• COC(=O)Nc1nc2ccc(Oc3ccc(NC(=O)Nc4cc(C(F)(F)F)ccc4F)cc3)cc2s1 = 10.7%

---

# system: Tyrosine-protein kinase Blk (Homo sapiens) (UniProt P51451);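 note: reported value is the mean percent inhibition of BLK kinase activity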
# Sequence (P51451 2-505 limits assumed): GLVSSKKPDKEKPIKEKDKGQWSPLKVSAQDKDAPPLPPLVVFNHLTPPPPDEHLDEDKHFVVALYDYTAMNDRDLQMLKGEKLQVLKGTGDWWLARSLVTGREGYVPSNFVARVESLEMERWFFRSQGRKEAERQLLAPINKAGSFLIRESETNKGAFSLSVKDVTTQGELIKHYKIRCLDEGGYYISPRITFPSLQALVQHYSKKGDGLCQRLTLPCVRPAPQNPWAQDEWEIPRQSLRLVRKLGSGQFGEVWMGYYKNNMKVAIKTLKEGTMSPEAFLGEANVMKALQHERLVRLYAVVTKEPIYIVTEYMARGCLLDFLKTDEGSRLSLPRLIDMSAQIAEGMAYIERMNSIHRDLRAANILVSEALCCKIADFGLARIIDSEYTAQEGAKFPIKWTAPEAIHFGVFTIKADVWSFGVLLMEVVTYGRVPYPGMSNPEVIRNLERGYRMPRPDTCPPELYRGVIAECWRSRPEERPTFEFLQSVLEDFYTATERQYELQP
# settings: at 0.1 µM
valueType: inhibition (%)

* CN1CCC(n2cnc(-c3ccc(F)cc3)c2-c2ccnc(NCCO)n2)CC1 | 3.74
* COc1cc2c(cc1Nc1nc(Nc3cccc(F)c3C(N)=O)c3cc[nH]c3n1)N(C(=O)CN1CCN(C(C)C)CC1)CC2 | -0.36
* CCS(=O)(=O)c1ccc(OC)c(Nc2ncc(-c3cccc(F)c3)o2)c1 | 21.3
* N#Cc1ccc2c(-c3ccnc(NC4CC4)n3)c(-c3ccc(F)cc3)nn2c1 | -1.08
* Cc1nnc(-c2cccc(-c3ccc(C(=O)NCC4CC4)cc3)c2)o1 | 3.6
* COc1cccc(Nc2nccc(-c3cnn4ncccc34)n2)c1 | 2.91
* COc1ccccc1-c1cc(/C=C2\C(=O)Nc3ncc(Br)cc32)cc(Br)c1O | 2.49
* COc1ccc(-c2nn3ncccc3c2-c2ccnc(Nc3ccc(F)c(F)c3)n2)cc1 | 3.7
* CS(=O)(=O)Nc1ccc(-c2cc(-c3ccccc3)cc(C(N)=O)c2N)cc1 | 0
* CCOc1ccc2c(-c3ccnc(Nc4cc(OC)cc(C(F)(F)F)c4)n3)cnn2n1 | 0.5
* NC(=O)c1ccc2c(-c3ccnc(NCCCO)n3)c(-c3ccc(F)cc3)nn2c1 | 2.21
* Fc1ccc(Nc2nccc(-c3c(-c4ccc(C(F)(F)F)cc4)nn4ncccc34)n2)cc1F | 2.43
* Cc1cc(O)cc(C)c1/C=C/c1cncc(C(N)=O)c1 | 3.77
* c1cnn2ncc(-c3ccnc(NCCCN4CCOCC4)n3)c2c1 | 1.7
* COC(=O)Nc1nc2cc(Oc3ccc(NC(=O)Nc4ccccc4)cc3)ccc2[nH]1 | 2.65
* N#Cc1cccc(Nc2ncc(-c3ccccc3)o2)c1 | 2.28
* COc1c(C(N)=O)cc(-c2ccc(Cl)cc2)cc1-c1ccc(S(N)(=O)=O)cc1 | 1.95
* CC1=C(C(=O)Nc2ccc3[nH]ncc3c2)C(c2ccc(F)cc2)N=C(c2ccc(C(F)(F)F)nc2)N1 (stereo not given) | 2.98
* CC1=C(C(=O)Nc2ccc3[nH]nc(C)c3c2)C(c2ccc(C(F)(F)F)cc2)CC(=O)N1 (stereo not given) | 3.36
* O=C(O[C@H]1CN[C@H](C#Cc2cc3ncnc(Nc4ccc(OCc5cccc(F)c5)c(Cl)c4)c3s2)C1)N1CCOCC1 | 3.99

---

# system: Vascular endothelial growth factor receptor 3 (Homo sapiens) (UniProt P35916);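 note: mean FLT4 inhibition, averaged across replicates, from the GSK PKIS kinase inhibitor screen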
# Sequence (P35916 whole entry): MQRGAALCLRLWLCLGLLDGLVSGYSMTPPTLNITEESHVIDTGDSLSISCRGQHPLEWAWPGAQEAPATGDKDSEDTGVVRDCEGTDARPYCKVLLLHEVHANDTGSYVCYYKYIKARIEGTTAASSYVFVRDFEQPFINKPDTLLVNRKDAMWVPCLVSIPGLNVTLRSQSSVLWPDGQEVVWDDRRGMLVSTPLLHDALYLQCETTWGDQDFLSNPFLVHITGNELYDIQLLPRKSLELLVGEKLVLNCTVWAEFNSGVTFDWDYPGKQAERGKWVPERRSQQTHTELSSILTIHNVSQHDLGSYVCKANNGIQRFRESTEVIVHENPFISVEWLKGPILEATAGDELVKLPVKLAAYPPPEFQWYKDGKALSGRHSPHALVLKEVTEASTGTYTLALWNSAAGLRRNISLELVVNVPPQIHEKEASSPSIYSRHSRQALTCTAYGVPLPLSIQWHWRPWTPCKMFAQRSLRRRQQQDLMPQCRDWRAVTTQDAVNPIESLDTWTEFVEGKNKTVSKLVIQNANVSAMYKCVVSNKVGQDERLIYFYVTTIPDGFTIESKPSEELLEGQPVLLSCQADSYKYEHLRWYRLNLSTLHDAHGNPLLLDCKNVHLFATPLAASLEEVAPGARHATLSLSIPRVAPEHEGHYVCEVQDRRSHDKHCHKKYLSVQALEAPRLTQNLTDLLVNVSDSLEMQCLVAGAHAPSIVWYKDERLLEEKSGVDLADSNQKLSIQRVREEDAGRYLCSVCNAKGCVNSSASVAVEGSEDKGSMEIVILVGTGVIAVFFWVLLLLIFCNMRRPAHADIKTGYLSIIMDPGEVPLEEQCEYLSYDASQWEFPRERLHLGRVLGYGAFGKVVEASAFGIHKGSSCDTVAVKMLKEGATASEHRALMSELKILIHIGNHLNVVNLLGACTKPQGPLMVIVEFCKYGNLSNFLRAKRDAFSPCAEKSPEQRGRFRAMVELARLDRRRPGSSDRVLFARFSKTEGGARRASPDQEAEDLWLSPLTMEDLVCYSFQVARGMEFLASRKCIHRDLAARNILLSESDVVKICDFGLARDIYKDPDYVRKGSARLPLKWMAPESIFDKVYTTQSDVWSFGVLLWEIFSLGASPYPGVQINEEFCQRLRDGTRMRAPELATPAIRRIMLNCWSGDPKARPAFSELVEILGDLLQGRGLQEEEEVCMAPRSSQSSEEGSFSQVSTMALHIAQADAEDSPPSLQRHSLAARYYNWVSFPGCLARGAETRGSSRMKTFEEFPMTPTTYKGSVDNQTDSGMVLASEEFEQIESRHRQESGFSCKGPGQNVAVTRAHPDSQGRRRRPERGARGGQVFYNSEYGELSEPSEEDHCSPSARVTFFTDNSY
# settings: at 1 µM
Recorded inhibition values for a group of molecules are listed next.
valueType: inhibition

* O=C(O[C@H]1CN[C@H](C#Cc2cc3ncnc(Nc4ccc(OCc5cccc(F)c5)c(Cl)c4)c3s2)C1)N1CCOCC1 | 3.14%
* CC(C)c1ccc(-c2cc(-c3c[nH]nc3-c3ccccn3)ccn2)cc1 | 5.15%
* COc1cc2c(cc1Nc1nc(Nc3cccc(F)c3C(N)=O)c3cc[nH]c3n1)N(C(=O)CN1CCN(C(C)C)CC1)CC2 | 4.32%
* CCS(=O)(=O)c1ccc(OC)c(Nc2ncc(-c3cccc(C(C)=O)c3)o2)c1 | 47.3%
* c1ccc(-c2n[nH]cc2-c2ccnc(-c3ccc(OCCn4ccnc4)cc3)c2)nc1 | 16.4%
* CS(=O)(=O)Nc1ccc(-c2ccc3c(NC(=O)C4CC4)n[nH]c3c2)cc1 | 2.39%
* Fc1ccc(Nc2nccc(-c3c(-c4ccc(C(F)(F)F)cc4)nn4ncccc34)n2)cc1F | -1.91%
* COc1c(C(N)=O)cc(-c2ccc(Cl)cc2)cc1-c1ccc(S(N)(=O)=O)cc1 | 0.39%
* Fc1cccc(COc2ccc(Nc3ncncc3C#Cc3ccccc3)cc2Cl)c1 | 0.69%
* Cc1cc(O)cc(C)c1/C=C/c1cncc(C(N)=O)c1 | 0.45%
* NC(=O)c1ccc2c(-c3ccnc(NCCCO)n3)c(-c3ccc(F)cc3)nn2c1 | 1.06%

---

Recorded inhibition values for a group of molecules are listed next.
# system: Fibroblast growth factor receptor 3 (Homo sapiens);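 note: values reported are mean percent inhibition of FGFR3 activity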
# settings: at 1 µM
valueType: inhibition (%)

- COc1c(C(N)=O)cc(-c2ccc(Cl)cc2)cc1-c1ccc(S(N)(=O)=O)cc1: 6.87
- COc1cc2c(cc1Nc1nc(Nc3cccc(F)c3C(N)=O)c3cc[nH]c3n1)N(C(=O)CN1CCN(C(C)C)CC1)CC2: 3.19
- NS(=O)(=O)c1ccc(N/N=C2\C(=O)Nc3ccc(C(=O)NCc4ccncc4)cc32)cc1: 8.12
- COC(=O)Nc1nc2ccc(Oc3ccc(NC(=O)Nc4cc(C(F)(F)F)ccc4F)cc3)cc2s1: 11.5
- COc1cccc(Nc2nccc(-c3cnn4ncccc34)n2)c1: 10.9
- COc1ccc(-c2nn3ncccc3c2-c2ccnc(Nc3ccc(F)c(F)c3)n2)cc1: 7.65
- CS(=O)(=O)Nc1ccc(-c2ccc3c(NC(=O)C4CC4)n[nH]c3c2)cc1: 5.97
- Fc1cccc(COc2ccc(Nc3ncncc3C#Cc3ccccc3)cc2Cl)c1: 3.8
- CS(=O)(=O)CCNCc1ccc(-c2ccc3ncnc(Nc4ccc(OCc5cccc(C(F)(F)F)c5)cc4)c3c2)o1: 10.7
